Provenance of the data: patent US12723255B2

- Tested on: transgenic soybean plants
- experiment-description: R0 soybean 2,4-D spray test of 2,4-D optimized variants
- Type: in vivo
- condition-set: 2× application rate; soy
result-type: tolerance to 2,4-D treatment

[
  {
    "molecule": "MON-HT14: engineered oxygenase protein, amino acid sequence SEQ ID NO:48 (protein) MHAALTPLTNKYRHIDVQPLTGVLGAEITGVDLREPLDDSTWNEILDAFHTYQVIYFPGQAITNEQHIAFSRRFGPVDPVPILKSIEGYPEVQMIRREANESSRYIGDDWHADSTFLDAPPAAVVMRAIEVPEYGGDTGFLSMYSAWETLSPTMQATIEGLNVVHSATKVFGSLYQATNWRFSGTSVKVMDVDAGDRETVHPLVVTHPVTGRRALYCNQVYCQKIQGMTDAESKSLLQFLYEHATQFDFTCRVRWKKDQVLVWDNLCTMHRAVPDYAGKFRYLTRTTVAGDKPSR",
    "experimental-result": "excellent tolerance"
  },
  {
    "molecule": "MON-HT1: engineered oxygenase protein, amino acid sequence SEQ ID NO:14 (protein) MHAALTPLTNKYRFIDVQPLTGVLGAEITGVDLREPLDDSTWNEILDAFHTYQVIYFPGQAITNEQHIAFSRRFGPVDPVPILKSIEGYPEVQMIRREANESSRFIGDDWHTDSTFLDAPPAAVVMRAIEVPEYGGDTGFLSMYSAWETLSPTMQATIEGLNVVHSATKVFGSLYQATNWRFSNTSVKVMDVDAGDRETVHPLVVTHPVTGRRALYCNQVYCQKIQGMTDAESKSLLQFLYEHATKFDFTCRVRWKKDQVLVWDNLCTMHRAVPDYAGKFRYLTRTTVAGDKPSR",
    "experimental-result": "excellent tolerance"
  },
  {
    "molecule": "MON-HT15: engineered oxygenase protein, amino acid sequence SEQ ID NO:49 (protein) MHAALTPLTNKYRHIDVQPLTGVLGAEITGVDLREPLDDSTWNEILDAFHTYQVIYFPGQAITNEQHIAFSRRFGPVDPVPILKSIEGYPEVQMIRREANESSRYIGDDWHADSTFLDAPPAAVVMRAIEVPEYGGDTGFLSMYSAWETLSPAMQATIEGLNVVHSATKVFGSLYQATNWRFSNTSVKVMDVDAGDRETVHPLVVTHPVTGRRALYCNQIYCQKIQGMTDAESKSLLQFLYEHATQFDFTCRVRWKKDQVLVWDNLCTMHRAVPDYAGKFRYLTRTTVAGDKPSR",
    "experimental-result": "excellent tolerance"
  }
]
